# Test system: LOX IMVI melanoma
# Procedure Summary: NCI tumour cell line growth inhibition, 48 h
Endpoint Name: TGI

The measured TGI that Cc1c(C(=O)/C=C/c2ccc(Cl)cc2)nnn1-c1ccnc2c(C(F)(F)F)cccc12 showed for LOX IMVI melanoma is > 100 µM

Given the compound CCCCCC1CC=CC(NC(=O)OCc2ccccc2)C1/C=C/CCCC1OCCO1 (stereo not given) and test system LOX IMVI melanoma, the measured TGI is > 100 µM

Lab note: compound CSC(=NC(=O)c1ccccc1)SCCSC(=NC(=O)c1ccccc1)SC tested on LOX IMVI melanoma; recorded TGI was > 100 µM

TGI for LOX IMVI melanoma with input O=C(CCN1CCCC1)Nc1ccc2c(Nc3ccc(Br)cc3)c3ccccc3nc2c1 equals 2.24 µM

TGI on LOX IMVI melanoma for COC1/C=C/OC2(C)Oc3c(C)c(O)c4c(O)c(c(/C=N/N(c5ccccc5)c5ccccc5)c(O)c4c3C2=O)NC(=O)C(C)=C/C=C/C(C)C(O)C(C)C(O)C(C)C(OC(C)=O)C1C (stereo not given) is 2.41 µM

Item O=c1[nH]c(Br)nc2n[nH]nc12 ; assay system LOX IMVI melanoma; TGI reported as > 100 µM

The compound CC(=O)OC(C)(C)C[N+](=O)[O-] , when measured on LOX IMVI melanoma, yielded TGI of > 100 µM

Tested system LOX IMVI melanoma; TGI recorded for Cl.[O-]c1cccc2cccnc12.[O-]c1cccc2cccnc12.[O-]c1cccc2cccnc12.[O-]c1cccc2cccnc12.[Ti+4] was > 88.9 µM

The compound CC1=C(C(=O)Nc2ccccc2C)C(c2ccccc2O)C(C(=O)Nc2ccccc2C)=C(C)N1 on LOX IMVI melanoma: TGI was 44.6 µM

Item: O=C1Nc2n[nH]c(=S)n2NC12c1ccccc1-c1ccccc12 | System: LOX IMVI melanoma | TGI: > 100 µM
